Consider the following molecules and their measured Activity readings.
experimental protocol: Displacement of [3H]colchicine from tubulin by at 5 uM scintillation proximity assay
observable: Activity

{"sample smiles": "COc1cc(C(=O)c2ccc3c(N)c(OC)ccc3n2)cc(OC)c1OC", "result": "97%"}
{"sample smiles": "COc1ccc(/C=C\\c2cc(OC)c(OC)c(OC)c2)cc1O", "result": "95%"}
{"sample smiles": "COc1cc(C(=O)c2ccc3ncccc3c2)cc(OC)c1OC", "result": "72%"}
{"sample smiles": "COc1ccc2nc(C(=O)c3cc(OC)c(OC)c(OC)c3)ccc2c1", "result": "68%"}

* * *

Recorded pIC50 for the following molecules
System: HT-29
experimental protocol: Antiproliferative activity against human HT-29 cells after 72 hrs by methylene blue dye assay
Format: functional, cell-based
condition details: HT-29, 72 h
pIC50: −log10 of the molar value.

{"sample smiles": "COc1cc(C(=O)c2ccc3c(ccc[n+]3C)c2)cc(OC)c1OC", "study target": "HT-29", "reading qualifier": "<", "pIC50": 5.00}
{"sample smiles": "COc1cc(C(=O)c2ccc3cccnc3c2)cc(OC)c1OC", "study target": "HT-29", "reading qualifier": "<", "pIC50": 5.00}
{"sample smiles": "COc1cc(C(=O)c2ccc3ncccc3c2)cc(OC)c1OC", "study target": "HT-29", "reading qualifier": "=", "pIC50": 7.61}
{"sample smiles": "COc1ccc2cc(C(=O)c3cc(OC)c(OC)c(OC)c3)ccc2n1", "study target": "HT-29", "reading qualifier": "=", "pIC50": 6.69}
{"sample smiles": "COc1cc(C(=O)c2cccc3ncccc23)cc(OC)c1OC", "study target": "HT-29", "reading qualifier": "=", "pIC50": 5.55}
{"sample smiles": "COc1cc(C(=O)c2cccc3cccnc23)cc(OC)c1OC", "study target": "HT-29", "reading qualifier": "=", "pIC50": 5.35}
{"sample smiles": "COc1cc(C(=O)c2ccnc3c(OC)cccc23)cc(OC)c1OC", "study target": "HT-29", "reading qualifier": "=", "pIC50": 6.79}
{"sample smiles": "COc1cc(C(=O)c2ccnc3ccccc23)cc(OC)c1OC", "study target": "HT-29", "reading qualifier": "=", "pIC50": 5.64}

* * *

Tested on: NCI-H460
experimental protocol: Antiproliferative activity against human H460 cells after 72 hrs by methylene blue dye assay
Type: functional, cell-based
condition details: NCI-H460, 72 h
We begin with a simple list: items and their reported IC50.
observable: IC50 (nM)

{"compound": "COc1cc(C(=O)c2ccc3c(N)c(OC)ccc3n2)cc(OC)c1OC", "study target": "NCI-H460", "observable": "IC50", "measurement units": "nM", "reading qualifier": "=", "measured number": 0.4}
{"compound": "COc1ccc2nc(C(=O)c3cc(OC)c(OC)c(OC)c3)ccc2c1", "study target": "NCI-H460", "observable": "IC50", "measurement units": "nM", "reading qualifier": "=", "measured number": 61.5}
{"compound": "COc1cc(C(=O)c2ccc3cccnc3c2)cc(OC)c1OC", "study target": "NCI-H460", "observable": "IC50", "measurement units": "nM", "reading qualifier": ">", "measured number": 10000}
{"compound": "COc1cc(C(=O)c2cnc3ccccc3c2)cc(OC)c1OC", "study target": "NCI-H460", "observable": "IC50", "measurement units": "nM", "reading qualifier": "=", "measured number": 1600}
{"compound": "COc1ccc2cc(C(=O)c3cc(OC)c(OC)c(OC)c3)ccc2n1", "study target": "NCI-H460", "observable": "IC50", "measurement units": "nM", "reading qualifier": "=", "measured number": 256}
{"compound": "COc1cc(C(=O)c2ccc3ccccc3n2)cc(OC)c1OC", "study target": "NCI-H460", "observable": "IC50", "measurement units": "nM", "reading qualifier": "=", "measured number": 180}
{"compound": "COc1cc(C(=O)c2cccc3cccnc23)cc(OC)c1OC", "study target": "NCI-H460", "observable": "IC50", "measurement units": "nM", "reading qualifier": "=", "measured number": 5000}
{"compound": "COc1cc(C(=O)c2ccc3c(ccc[n+]3C)c2)cc(OC)c1OC", "study target": "NCI-H460", "observable": "IC50", "measurement units": "nM", "reading qualifier": ">", "measured number": 10000}
{"compound": "COc1cc(C(=O)c2ccc3ncccc3c2)cc(OC)c1OC", "study target": "NCI-H460", "observable": "IC50", "measurement units": "nM", "reading qualifier": "=", "measured number": 36}
{"compound": "COc1cc(C(=O)c2ccc3c(ccc[n+]3[O-])c2)cc(OC)c1OC", "study target": "NCI-H460", "observable": "IC50", "measurement units": "nM", "reading qualifier": "=", "measured number": 1100}
{"compound": "COc1cc(C(=O)c2ccnc3c(OC)cccc23)cc(OC)c1OC", "study target": "NCI-H460", "observable": "IC50", "measurement units": "nM", "reading qualifier": "=", "measured number": 193}
{"compound": "COc1cc(C(=O)c2cccc3ncccc23)cc(OC)c1OC", "study target": "NCI-H460", "observable": "IC50", "measurement units": "nM", "reading qualifier": "=", "measured number": 3800}
{"compound": "COc1cc(C(=O)c2ccnc3ccccc23)cc(OC)c1OC", "study target": "NCI-H460", "observable": "IC50", "measurement units": "nM", "reading qualifier": "=", "measured number": 3800}
{"compound": "COc1ccc(/C=C\\c2cc(OC)c(OC)c(OC)c2)cc1O [COMBRETASTATIN A4]", "study target": "NCI-H460", "observable": "IC50", "measurement units": "nM", "reading qualifier": "=", "measured number": 2.6}

Values compiled from ChEMBL document CHEMBL1157572.
